ASSAYED SYSTEM: EGFR (Human), P00533 [T790M/L858R]
Sequence (P00533 whole entry T790M/L858R, looked up): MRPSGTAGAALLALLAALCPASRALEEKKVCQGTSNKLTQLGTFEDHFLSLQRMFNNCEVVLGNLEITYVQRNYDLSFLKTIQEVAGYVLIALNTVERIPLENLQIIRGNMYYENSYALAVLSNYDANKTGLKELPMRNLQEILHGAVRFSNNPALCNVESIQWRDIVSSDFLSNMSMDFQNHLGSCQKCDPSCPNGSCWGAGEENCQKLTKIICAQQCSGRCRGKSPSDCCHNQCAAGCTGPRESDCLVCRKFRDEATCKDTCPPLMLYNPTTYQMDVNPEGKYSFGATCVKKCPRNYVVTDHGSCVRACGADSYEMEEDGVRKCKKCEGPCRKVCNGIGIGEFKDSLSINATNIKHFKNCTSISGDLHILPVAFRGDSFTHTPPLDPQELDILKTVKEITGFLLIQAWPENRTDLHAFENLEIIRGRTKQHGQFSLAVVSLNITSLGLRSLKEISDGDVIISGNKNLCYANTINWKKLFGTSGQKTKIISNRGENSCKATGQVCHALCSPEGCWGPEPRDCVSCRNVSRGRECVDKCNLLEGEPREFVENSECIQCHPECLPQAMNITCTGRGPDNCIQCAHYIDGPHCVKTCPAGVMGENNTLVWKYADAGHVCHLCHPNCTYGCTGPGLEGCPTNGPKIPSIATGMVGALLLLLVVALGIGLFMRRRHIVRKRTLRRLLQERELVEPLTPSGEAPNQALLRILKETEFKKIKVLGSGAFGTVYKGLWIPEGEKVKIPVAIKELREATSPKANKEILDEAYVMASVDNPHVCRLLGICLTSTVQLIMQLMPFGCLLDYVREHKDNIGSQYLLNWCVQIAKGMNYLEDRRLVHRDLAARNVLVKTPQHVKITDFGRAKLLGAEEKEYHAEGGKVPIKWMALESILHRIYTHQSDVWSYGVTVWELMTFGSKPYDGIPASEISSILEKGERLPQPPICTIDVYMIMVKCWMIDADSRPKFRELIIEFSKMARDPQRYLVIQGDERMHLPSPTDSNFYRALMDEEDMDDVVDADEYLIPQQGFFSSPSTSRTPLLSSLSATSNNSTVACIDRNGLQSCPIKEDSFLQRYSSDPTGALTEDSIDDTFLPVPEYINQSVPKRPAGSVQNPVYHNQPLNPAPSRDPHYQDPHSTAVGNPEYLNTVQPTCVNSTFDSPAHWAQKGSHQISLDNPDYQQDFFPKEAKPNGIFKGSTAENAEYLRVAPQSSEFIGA
REPORTED CONDITIONS: baf3
REPORTED PROPERTY: IC50

- COMPOUND: "C=CC(=O)Nc1cc(Nc2ncc(Cl)c(Nc3ccccc3P(C)(C)=O)n2)c(OC)cc1OCC1CCOCC1"
  IC50: "101 to 250 nM"

QUERY: In one line, give reported IC50 of the entry C=CC(=O)Nc1ccc(CC)c(Nc2ncc(Cl)c(Nc3ccccc3P(C)(C)=O)n2)c1 .
RESULT: < 50 nM

QUERY: Read off the recorded IC50 for C=CC(=O)Nc1cc(Nc2ncc(Cl)c(Nc3ccccc3P(C)(C)=O)n2)c(OC)cc1OCc1ccncc1
RESULT: 101 to 250 nM

QUERY: Return value of IC50 for input CNC(=O)/C=C/C(=O)Nc1ccc(OC)c(Nc2ncc(Cl)c(Nc3ccccc3P(C)(C)=O)n2)c1 , no commentary.
RESULT: 101 to 250 nM

QUERY: Assign IC50 to the following record: C=CC(=O)Nc1cc(Nc2ncc(Cl)c(Nc3ccccc3P(C)(C)=O)n2)c(OC)cc1N1CCN(C2CCN(C)CC2)CC1
RESULT: 101 to 250 nM

QUERY: Provide only the value of recorded IC50 for C=C(Cl)C(=O)Nc1ccc(OC)c(Nc2ncc(Cl)c(Nc3ccccc3P(C)(C)=O)n2)c1
RESULT: 101 to 250 nM

QUERY: Please indicate IC50 recorded for C=CC(=O)Nc1cc(Nc2ncc(Cl)c(Nc3ccccc3P(C)(C)=O)n2)c(OC)cc1OCC1CCCN1C (stereo not drawn)
RESULT: < 50 nM

QUERY: Please report IC50 for the following compound: C=CC(=O)Nc1cc(Nc2ncc(Cl)c(Nc3ccccc3P(C)(C)=O)n2)c(OC)cc1N1CCC(N2CCCCC2)C1 (stereo not drawn)
RESULT: < 50 nM

QUERY: Assign IC50 to the following record: C=CC(=O)Nc1ccc(OC(F)(F)F)c(Nc2ncc(Cl)c(Nc3ccccc3P(C)(C)=O)n2)c1
RESULT: < 50 nM

QUERY: Report IC50, nothing else, for this compound: COCC#CC(=O)Nc1cc(Nc2ncc(Cl)c(Nc3ccccc3P(C)(C)=O)n2)c(OC)cc1N1CCC(N(C)C)C1 (stereo not drawn)
RESULT: < 50 nM

QUERY: State its IC50 for this compound: C=CC(=O)Nc1cc(Nc2ncc(Cl)c(Nc3ccccc3P(C)(C)=O)n2)c(OC)cc1C#CCN1CCCCCC1
RESULT: < 50 nM

QUERY: Report IC50 for C=CC(=O)Nc1cc(Nc2ncc(Cl)c(Nc3ccccc3P(C)(C)=O)n2)c(OC)cc1N1CCC(N(C)C)C1 (stereo not drawn)
RESULT: < 50 nM
